test: logP, n-octanol/water partition coefficient by reversed phase HPLC; type: physicochemical; settings: A isomer (possible geometric isomer), reversed phase HPLC using H2O/CH3CN
measurementLabel: logP (A isomer)
Respond using a number only.

{"columns": ["compound", "logP (A isomer)"],
 "data": [
  ["CCCCON=C(C)C(C)Oc1ccc(-c2ccc(C3COC(c4c(F)cccc4Cl)=N3)cc2)cc1 (mixture of isomers) [Example 49]", 6.23]
]}

# input for lookup
Which logP (A isomer) value belongs to CC(=NOCC(C)C)C(C)Oc1ccc(-c2ccc(C3COC(c4c(F)cccc4F)=N3)cc2)cc1 (mixture of isomers) [Example 51] ?
5.93
